Species: Mus musculus
assay: Percent inhibition of [3H]-colchicine binding to tubulin with molar ratio of 1:1 (inhibitor: [3H]-colchicine)
Format: functional
Entry flag: True if Inhibition reaches 20%; False if it does not.

- compound: "COc1cc2c(c(OC)c1OC)-c1ccc(CC(C)C)c(=O)cc1[C@@H](NC(C)=O)CC2"
  cat: "False"
- compound: "COc1cc2c(c(OC)c1OC)-c1ccc(N=[N+]=[N-])c(=O)cc1[C@@H](NC(C)=O)CC2"
  cat: "True"
- compound: "COc1cc2c(c(OC)c1OC)-c1ccc(F)c(=O)cc1[C@@H](NC(C)=O)CC2"
  cat: "False"
- compound: "COc1cc2c(c(OC)c1OC)-c1ccc(I)c(=O)cc1[C@@H](NC(C)=O)CC2"
  cat: "True"
- compound: "CCOc1ccc2c(cc1=O)[C@@H](NC(C)=O)CCc1cc(OC)c(OC)c(OC)c1-2"
  cat: "True"
- compound: "COc1cc2c(c(OC)c1OC)-c1ccc(C(C)(C)C)c(=O)cc1[C@@H](NC(C)=O)CC2"
  cat: "True"
- compound: "CCCCc1ccc2c(cc1=O)[C@@H](NC(C)=O)CCc1cc(OC)c(OC)c(OC)c1-2"
  cat: "False"
- compound: "CCCc1ccc2c(cc1=O)[C@@H](NC(C)=O)CCc1cc(OC)c(OC)c(OC)c1-2"
  cat: "True"
- compound: "COc1cc2c(c(OC)c1OC)-c1ccc(OC(C)C)c(=O)cc1[C@@H](NC(C)=O)CC2"
  cat: "False"
- compound: "COc1cc2c(c(OC)c1OC)-c1ccc(OC)c(=O)cc1[C@@H](NC(C)=O)CC2 [COLCHICINE]"
  cat: "True"
- compound: "COc1cc2c(c(OC)c1OC)-c1cccc(=O)cc1[C@@H](NC(C)=O)CC2 [CHOLCHICIDE]"
  cat: "False"
- compound: "COc1cc2c(c(OC)c1OC)-c1ccc(C)c(=O)cc1[C@@H](NC(C)=O)CC2"
  cat: "True"
- compound: "CCCOc1ccc2c(cc1=O)[C@@H](NC(C)=O)CCc1cc(OC)c(OC)c(OC)c1-2"
  cat: "False"
- compound: "CCc1ccc2c(cc1=O)[C@@H](NC(C)=O)CCc1cc(OC)c(OC)c(OC)c1-2"
  cat: "True"
- compound: "COc1cc2c(c(OC)c1OC)-c1ccc(C(C)C)c(=O)cc1[C@@H](NC(C)=O)CC2"
  cat: "True"
- compound: "COc1cc2c(c(OC)c1OC)-c1ccc(Cl)c(=O)cc1[C@@H](NC(C)=O)CC2"
  cat: "True"
- compound: "COc1cc2c(c(OC)c1OC)-c1ccc(-c3ccccc3)c(=O)cc1[C@@H](NC(C)=O)CC2"
  cat: "False"
- compound: "COc1cc2c(c(OC)c1OC)-c1ccc(Br)c(=O)cc1[C@@H](NC(C)=O)CC2"
  cat: "True"
